biological target: UniProt:P43166; settings: filed as activator
Sequence (P43166 whole entry): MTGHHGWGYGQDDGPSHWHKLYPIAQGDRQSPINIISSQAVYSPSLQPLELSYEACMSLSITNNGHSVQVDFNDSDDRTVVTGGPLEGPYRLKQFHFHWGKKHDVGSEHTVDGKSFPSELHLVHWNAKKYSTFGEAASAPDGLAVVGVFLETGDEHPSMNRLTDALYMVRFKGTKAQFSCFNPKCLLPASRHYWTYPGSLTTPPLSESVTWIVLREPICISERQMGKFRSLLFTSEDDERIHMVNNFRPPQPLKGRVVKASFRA
Description: Binding affinity to human carbonic anhydrase 7 assessed as activation constant by phenol red dye based stopped-flow method
Parameter log10 of KA: see the listing below.
assay.metric: log10 of KA (log10 of the value in nM)

1. c1ccc2c(NCCCCCCNCCc3c[nH]cn3)c3c(nc2c1)CCCC3 = 2.59
2. COC(=O)[C@H](Cc1c[nH]cn1)NCCCCCCNc1c2c(nc3ccccc13)CCCC2 = 1.99
3. COC(=O)[C@H](CCCCNC(=O)OCc1ccccc1)NCCCCCCNc1c2c(nc3ccccc13)CCCC2 = 3.35
4. N[C@@H](Cc1c[nH]cn1)C(=O)NCCCCCCNc1c2c(nc3ccccc13)CCCC2 = 1.92
5. N[C@@H](Cc1c[nH]cn1)C(=O)NCCCNc1c2c(nc3ccccc13)CCCC2 = 2.45
6. COC(=O)[C@H](CCCCNC(=O)OCc1ccccc1)NCCCCCNc1c2c(nc3ccccc13)CCCC2 = 3.14
7. N[C@@H](Cc1ccccc1)C(=O)NCCCCCNc1c2c(nc3ccccc13)CCCC2 = 2.28
8. COC(=O)[C@H](Cc1c[nH]c2ccccc12)NCCCCCNc1c2c(nc3ccccc13)CCCC2 = 2.68

---

target: Carbonic anhydrase 2 (Homo sapiens) (UniProt P00918); settings: filed as activator
Description: Binding affinity to human carbonic anhydrase 2 assessed as activation constant by phenol red dye based stopped-flow method
Parameter KA: see the listing below.
assay.metric: KA (nM)

1. CC(C)(C)OC(=O)N[C@@H](Cc1cn(C(=O)OC(C)(C)C)cn1)C(=O)NCCCCCCNc1c2c(nc3ccccc13)CCCC2 = 10000
2. COC(=O)[C@H](Cc1ccccc1)NCCCCCCNc1c2c(nc3ccccc13)CCCC2 = 312
3. CC(C)(C)OC(=O)N[C@@H](Cc1c[nH]c2ccccc12)C(=O)NCCCNc1c2c(nc3ccccc13)CCCC2 = 5180
4. N[C@@H](Cc1c[nH]cn1)C(=O)NCCCCNc1c2c(nc3ccccc13)CCCC2 = 199
5. N[C@@H](Cc1c[nH]cn1)C(=O)NCCCCCNc1c2c(nc3ccccc13)CCCC2 = 65.1
6. CC(C)(C)OC(=O)N[C@@H](Cc1c[nH]c2ccccc12)C(=O)NCCCCCNc1c2c(nc3ccccc13)CCCC2 = 2940
7. N[C@@H](Cc1ccccc1)C(=O)NCCCCCNc1c2c(nc3ccccc13)CCCC2 = 93.4
8. COC(=O)[C@H](CCCCNC(=O)OCc1ccccc1)NCCCCCNc1c2c(nc3ccccc13)CCCC2 = 1990
9. COC(=O)[C@H](Cc1c[nH]cn1)NCCCCCNc1c2c(nc3ccccc13)CCCC2 = 175
10. CC(C)(C)OC(=O)N[C@@H](Cc1c[nH]c2ccccc12)C(=O)NCCCCCCNc1c2c(nc3ccccc13)CCCC2 = 2660
11. N[C@@H](CCCCNC(=O)OCc1ccccc1)C(=O)NCCCCCNc1c2c(nc3ccccc13)CCCC2 = 981

---

biological target: Acetylcholinesterase (Electrophorus electricus, UniProt O42275)
Sequence (O42275 whole entry): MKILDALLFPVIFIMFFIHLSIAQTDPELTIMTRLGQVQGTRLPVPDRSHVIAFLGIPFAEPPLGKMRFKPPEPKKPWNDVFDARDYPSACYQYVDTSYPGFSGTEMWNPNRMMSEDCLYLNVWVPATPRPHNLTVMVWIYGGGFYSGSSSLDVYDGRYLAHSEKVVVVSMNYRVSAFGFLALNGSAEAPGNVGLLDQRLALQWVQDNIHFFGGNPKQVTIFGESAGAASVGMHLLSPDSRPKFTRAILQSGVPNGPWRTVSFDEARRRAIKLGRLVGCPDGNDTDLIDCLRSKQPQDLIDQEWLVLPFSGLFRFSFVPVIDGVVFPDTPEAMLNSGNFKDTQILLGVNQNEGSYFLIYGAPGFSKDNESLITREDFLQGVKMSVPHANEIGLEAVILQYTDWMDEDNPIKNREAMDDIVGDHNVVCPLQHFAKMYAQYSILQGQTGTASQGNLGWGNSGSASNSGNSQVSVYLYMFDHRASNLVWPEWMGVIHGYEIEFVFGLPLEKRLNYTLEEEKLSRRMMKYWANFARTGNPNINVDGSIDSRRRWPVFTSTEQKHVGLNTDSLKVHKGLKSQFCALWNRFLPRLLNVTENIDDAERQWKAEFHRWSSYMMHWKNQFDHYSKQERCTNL
Parameter IC50: see the listing below.
assay.metric: IC50 (nM)

1) CC(C)(C)OC(=O)N[C@@H](Cc1ccccc1)C(=O)NCCCCCCNc1c2c(nc3ccccc13)CCCC2 = 9.9
2) COC(=O)[C@H](CCCCNC(=O)OCc1ccccc1)NCCCCCNc1c2c(nc3ccccc13)CCCC2 = 12.4
3) CC(C)(C)OC(=O)N[C@@H](Cc1cn(C(=O)OC(C)(C)C)cn1)C(=O)NCCCCCCNc1c2c(nc3ccccc13)CCCC2 = 14.5
